The measurements presented in this section are drawn from patent US20220281965A1.

Hi there, I'd appreciate the recorded pIC50 for every entry that follows.
Target: T1, mature human GDF-15 (human, UniProt Q99988 197-308)
T1 construct: Homodimer; also called hGDF-15; recombinant hu-GDF15
T1 sequence: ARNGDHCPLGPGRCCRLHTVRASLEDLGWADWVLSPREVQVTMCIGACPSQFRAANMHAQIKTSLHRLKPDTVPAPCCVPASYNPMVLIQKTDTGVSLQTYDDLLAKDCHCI
Test: HTRF epitope competition; competitor DyLight 650 labelled Antibody A; Europium labelled human GDF-15
One number for each entry, as −log10 of the molar value.

AB1170148 (antibody, V domains shown) VH: QVQLQQPGAELVRPGTSVKLSCKASGYTFTSYWMHWVKQRPRQGLEWIGLIDPSDNYTNYNQNFKGKATLTVDTSSSTAYMQLGSLTSEDSAVYYCASYDGYSTPSAMDYWGQGTSVTVSS VL: QIVLSQSPAILSASPGEKVTMTCRASSSVNYMHWYQQKPGSSPKPWIYATSNLASGVPARFSGSGSGTSYSLIISRVEAEDAAAYYCQQWSSYPPTFGGGTKLEIK :: 7.17
AB1170010 (antibody, V domains shown) VH: QVTLKESGPGILQPSQTLSLTCSFSGFSLSTYGMGVGWIRQPSGKGLEWLANIWWNDDKYYNSALKSRLTISKDTSNNQVFLKISSVDTADTATYYCAQEVYGWFAYWGQGTLVTVSS VL: DIVMTQSQKFMSTSVGDRVSVTCKASQNVGTNVAWYQQKPGQSPKALIYSASYRYSGVPDRFTGSGSGTDFTLTISNVQSEDLAEYFCQQYNSYPLTFGGGTKLEIK :: 9.12
AB1170243 (antibody, IgG1, V domains shown, Humanized IgG1 TM; also called human anti-human GDF-15 IgG; not shown: human immunoglobulin kappa light chain constant domain) VH: QVQLVQSGSELKKPGASVKVSCKASGYTFTDYNMDWIRQSPGKGLEWIGDINPNNGGTFYNQKFKDRATLTVDKSTSTAYMELRSLRSDDTAVYYCAREEKLYFGLMDYWGQGTTVTVSS VL: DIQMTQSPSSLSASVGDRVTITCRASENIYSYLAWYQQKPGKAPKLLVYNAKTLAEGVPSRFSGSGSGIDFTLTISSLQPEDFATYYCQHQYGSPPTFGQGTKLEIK :: 9.81

For each listed entry, give its pIC50.
1. AB1170040 (antibody, V domains shown) VH: DVKLVESGEGLVKPGGSLKLSCAASGFTFSSYAMSWVRQTPEKRLEWVAYISSGGDYIYYADTVKGRFTISRDNARNTLYLQMSSLKSEDTAMYYCTRALVDNAYFDYWGQGTTLTVSS VL: DIVLTQSPASLAVSLGQRATISCRASKSVSTSSYSYMHWYQQKPGQPPKLLIKYASYLEFGVPARFSGSGSGTDFTLNIHPVEEEDAATYYCQHSREFPWTFGGGTKLEIK
2. AB1170248 (antibody, IgG1, V domains shown, Humanized IgG1 TM; not shown: human immunoglobulin kappa light chain constant domain) VH: QVQLVQSGSELKKPGASVKVSCKASGYTFTDYNMDWVRQAPGKGLEWIGDINPYNGITIYNQKFKGRATLTVDKSTSTAYMELRSLRSDDTAVYYCAREEKLGTSFDYWGQGTTVTVSS VL: DIQMTQSPSSLSASVGDRVTITCRASENIYSNLAWYQQKPGKAPKLLVYAATNLADGVPSRFSGSGSGTDFTLTISSLQPEDFATYYCQHFYGTPWTFGQGTKLEIK

Reply |
1: 8.85; 2: 8.80
